Data provenance is ChEMBL document CHEMBL2429868.

assay: Metabolic stability in rat liver microsomes assessed as compound remaining at 1 uM after 6 hrs by HPLC analysis in presence of NADPH-regenerating system; format: ADME, Microsome; conditions: read-out: Stability
Below, each entry is listed alongside its reported remaining at 6 h, 1 µM.
Respond with a number, then the unit of measure.

Sample answers from the record:
STRUCTURE_NOTATION: CCN(CC)CCCCn1cc/c(=N\c2ccc(-c3ccccc3)cc2)c2ccc(Cl)cc21
remaining at 6 h, 1 µM: 62.7%
--
STRUCTURE_NOTATION: CCN(CC)CCn1cc/c(=N\c2ccc(-c3ccccc3)cc2)c2ccc(C(F)(F)F)cc21
remaining at 6 h, 1 µM: 80.4%
--
STRUCTURE_NOTATION: Clc1ccc2c(c1)/c(=N/c1ccc(-c3ccccc3)cc1)ccn2CCCN1CCCCC1
remaining at 6 h, 1 µM: 75%
--
STRUCTURE_NOTATION: FC(F)(F)c1ccc2/c(=N/c3ccc(-c4ccccc4)cc3)ccn(CCN3CCCC3)c2c1
remaining at 6 h, 1 µM: 79%

Next up:
Determine its reported remaining at 6 h, 1 µM: `CCN(CC)CCCCn1cc/c(=N\c2ccc(-c3ccccc3)cc2)c2ccc(C(F)(F)F)cc21`
81.5%
